- TESTED SYSTEM: human TRPC6 (Homo sapiens, UniProt Q9Y210)
- Construct: expressed in transfected cells; host or cells: HEK 293
- Sequence (Q9Y210 1-931): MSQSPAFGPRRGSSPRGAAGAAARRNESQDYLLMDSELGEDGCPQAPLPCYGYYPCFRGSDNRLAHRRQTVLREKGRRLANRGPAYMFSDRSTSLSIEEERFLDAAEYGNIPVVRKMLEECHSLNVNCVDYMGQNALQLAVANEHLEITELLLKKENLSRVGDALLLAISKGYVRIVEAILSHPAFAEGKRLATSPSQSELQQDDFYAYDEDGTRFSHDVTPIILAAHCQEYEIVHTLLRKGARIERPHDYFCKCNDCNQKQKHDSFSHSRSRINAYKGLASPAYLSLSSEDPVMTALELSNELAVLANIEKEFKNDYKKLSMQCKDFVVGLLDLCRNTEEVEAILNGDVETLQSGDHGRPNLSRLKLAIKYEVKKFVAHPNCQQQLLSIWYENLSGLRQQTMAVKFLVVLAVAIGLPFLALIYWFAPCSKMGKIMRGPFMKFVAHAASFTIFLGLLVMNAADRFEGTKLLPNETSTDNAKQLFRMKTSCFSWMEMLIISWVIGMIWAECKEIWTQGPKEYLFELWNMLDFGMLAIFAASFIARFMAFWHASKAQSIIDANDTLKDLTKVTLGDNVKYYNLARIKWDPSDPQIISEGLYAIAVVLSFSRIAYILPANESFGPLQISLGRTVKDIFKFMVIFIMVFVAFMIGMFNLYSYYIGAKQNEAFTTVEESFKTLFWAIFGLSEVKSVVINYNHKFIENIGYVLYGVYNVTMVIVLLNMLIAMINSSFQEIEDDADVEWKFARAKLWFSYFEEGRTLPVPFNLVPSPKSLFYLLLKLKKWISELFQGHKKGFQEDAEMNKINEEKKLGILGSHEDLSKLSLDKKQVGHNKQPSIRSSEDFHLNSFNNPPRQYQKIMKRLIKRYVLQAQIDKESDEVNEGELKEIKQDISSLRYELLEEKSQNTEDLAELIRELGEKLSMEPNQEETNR
- EXPERIMENT NOTES: TRPC6 fluorescence-based assay (Ca2+ flux assay in FLIPR format), cells overexpressing TRPC6
- Assay type: cell-based
- REPORTED CONDITIONS: 5 μM of test compound, following Carbachol stimulation
Threshold check on inhibition at 5 µM: at or above 30% gives YES, strictly below gives NO.

| SMILES REPRESENTATION | TESTED SYSTEM | CLASSIFICATION |
| --- | --- | --- |
| CCn1c(NCc2ccccc2O)nc2ccccc21 | human TRPC6 (Homo sapiens, UniProt Q9Y210) | NO |
| C#CCn1c(Cc2ccc(OC)c(OC)c2)nc2ccccc21 | human TRPC6 (Homo sapiens, UniProt Q9Y210) | YES |
| COc1ccc(NCc2nc3ccccc3n2CCOc2ccccc2C)cc1 | human TRPC6 (Homo sapiens, UniProt Q9Y210) | YES |
| c1csc(CNc2nc3ccccc3n2CCN2CCCCC2)c1 | human TRPC6 (Homo sapiens, UniProt Q9Y210) | NO |
| c1ccc(Cc2nc3ccccc3n2CCOc2ccccc2)cc1 | human TRPC6 (Homo sapiens, UniProt Q9Y210) | NO |
| Nc1nc2ccccc2n1Cc1ccccc1F | human TRPC6 (Homo sapiens, UniProt Q9Y210) | YES |
| Nc1ccc(-c2nc3ccccc3n2CCCOc2ccccc2)cc1 | human TRPC6 (Homo sapiens, UniProt Q9Y210) | NO |
| Brc1cccc(CNc2nc3ccccc3n2CCN2CCCCC2)c1 | human TRPC6 (Homo sapiens, UniProt Q9Y210) | YES |
| CC(C)n1c(NCc2ccccc2)nc2ccccc21 | human TRPC6 (Homo sapiens, UniProt Q9Y210) | NO |
| Cn1c(NCc2cccc3ccccc23)nc2ccccc21 | human TRPC6 (Homo sapiens, UniProt Q9Y210) | NO |
| CCCn1c(NCc2nc3ccccc3n2C)nc2ccccc21 | human TRPC6 (Homo sapiens, UniProt Q9Y210) | NO |
| Cn1c(NCc2c[nH]c3ccccc23)nc2ccccc21 | human TRPC6 (Homo sapiens, UniProt Q9Y210) | NO |
